System: Enterococcus faecalis ATCC 29212
Assay: Broth microdilution MIC, E. faecalis ATCC 29212
Format: cell-based
Conditions: ATCC29212, broth microdilution, 37° C., 20 hours, read-out: MIC E. faecalis ATCC 29212
experimental readout: MIC (µg/mL)

[[record]]
compound = "Cl.O=c1[nH]c(NCc2ccc(Cl)c(Cl)c2)nc2cnn(Cn3cncn3)c12 [Compound 101]"
target_entity = "Enterococcus faecalis ATCC 29212"
experimental_readout = "MIC"
numeric_value = 4

[[record]]
compound = "COC(=O)COCCOCCn1ncc2nc(NCc3ccc(Cl)c(Cl)c3)[nH]c(=O)c21 [Compound 186]"
target_entity = "Enterococcus faecalis ATCC 29212"
experimental_readout = "MIC"
numeric_value = 16

[[record]]
compound = "Cl.Cl.O=c1[nH]c(NCc2ccc(Cl)c(Cl)c2)nc2cnn(C3CCN(Cc4ccncc4)CC3)c12 [Compound 246]"
target_entity = "Enterococcus faecalis ATCC 29212"
experimental_readout = "MIC"
numeric_value = 4

[[record]]
compound = "O=C(O)C(CCCn1ncc2nc(NCc3ccc(Cl)c(Cl)c3)[nH]c(=O)c21)c1ccccc1 (centres unmarked) [Compound 201]"
target_entity = "Enterococcus faecalis ATCC 29212"
experimental_readout = "MIC"
numeric_value = 32


1 = CN(C)CC(O)C(O)C(=O)N1CCC(n2ncc3nc(NCc4ccc(Cl)c(Cl)c4)[nH]c(=O)c32)CC1.Cl (centres unmarked) [Compound 277]
2 = Cl.O=C(c1ncc[nH]1)N1CCC(n2ncc3nc(NCc4ccc(Cl)c(Cl)c4)[nH]c(=O)c32)CC1 [Compound 269]
# returns the entry with the larger MIC; inputs 1 and 2 Which one? Tell me its label. 1

====

Tested on: Streptococcus pneumoniae ATCC 49619
Assay: Broth microdilution MIC, S. pneumoniae ATCC 49619
Format: cell-based
Conditions: ATCC49619, broth microdilution, 37° C., 20 hours, read-out: MIC S. pneumoniae ATCC 49619
experimental readout: MIC (µg/mL)

[[record]]
molecule = "O=c1[nH]c(NCc2ccc(F)c(F)c2)nc2c(F)nn(CCOCCO)c12 [Compound 301]"
numeric_value = 4


I = COCCCCCn1cc2nc(NCc3ccc(Cl)c(Cl)c3)[nH]c(=O)c2n1 [Compound 133]
II = Cl.O=C(c1ccccn1)N1CCC(n2ncc3nc(NCc4ccc(Cl)c(Cl)c4)[nH]c(=O)c32)CC1 [Compound 255]
Please compare: I and II . Report which one has the smaller MIC value. Provide the label of your selected option as the answer. II

====

System: Enterococcus faecalis ATCC 29212
Assay: Broth microdilution MIC, E. faecalis ATCC 29212
Type: cell-based
Details: ATCC29212, broth microdilution, 37° C., 20 hours, read-out: MIC E. faecalis ATCC 29212
experimental readout: MIC (µg/mL)

[[record]]
smiles_repr = "Cl.Cl.O=c1[nH]c(NCc2ccc(Cl)c(Cl)c2)nc2cnn(C3CCN(Cc4cccnc4)CC3)c12"
numeric_value = 4


I = O=c1[nH]c(NCc2ccc(Cl)c(Cl)c2)nc2c(Br)nn(CCOCCO)c12
II = COCCn1nc(F)c2nc(NCc3ccc(Cl)c(Cl)c3)[nH]c(=O)c21
Which record would sort first by descending MIC, I or II ? I would appreciate it if you answered with the label of your choice. I

====

Tested on: Streptococcus pneumoniae ATCC 49619
Experiment: Broth microdilution MIC, S. pneumoniae ATCC 49619
Assay type: cell-based
Settings: ATCC49619, broth microdilution, 37° C., 20 hours, read-out: MIC S. pneumoniae ATCC 49619
experimental readout: MIC (µg/mL)

As a guide, the following entries are already answered.
[[record]]
compound = "O=c1[nH]c(NCc2ccc(Cl)c(Cl)c2)nc2c(Cl)nn(CCOCCO)c12"
unit_info = "µg/mL"
numeric_value = 2

[[record]]
compound = "Cl.O=C(c1cccnc1)N1CCC(n2ncc3nc(NCc4ccc(Cl)c(Cl)c4)[nH]c(=O)c32)CC1"
unit_info = "µg/mL"
numeric_value = 4

[[record]]
compound = "N#CCOCCn1ncc2nc(NCc3ccc(Cl)c(Cl)c3)[nH]c(=O)c21"
unit_info = "µg/mL"
numeric_value = 4

[[record]]
compound = "CN(CCn1ncc2nc(NCc3ccc(Cl)c(Cl)c3)[nH]c(=O)c21)C(=O)c1cc(Cl)nnc1O"
unit_info = "µg/mL"
numeric_value = 8

[[record]]
compound = "CN(C)C(=O)C1CN(CCn2ncc3nc(NCc4ccc(Cl)c(Cl)c4)[nH]c(=O)c32)CCO1.Cl (stereo not drawn)"
unit_info = "µg/mL"
numeric_value = 8


A = O=c1[nH]c(NCc2ccc(Cl)c(Cl)c2)nc2cnn(CCOCCCO)c12
B = COC(=O)C(C)n1ncc2nc(NCc3ccc(Cl)c(Cl)c3)[nH]c(=O)c21 (stereo not drawn)
C = Cc1cccnc1C(=O)N1CCC(n2ncc3nc(NCc4ccc(Cl)c(Cl)c4)[nH]c(=O)c32)CC1.Cl
D = CP(C)(=O)CCCCn1ncc2nc(NCc3ccc(Cl)c(Cl)c3)[nH]c(=O)c21
Place the items in sequence of falling MIC. List the labels, following the order given in the request. D, B, A, C
(D: 32 µg/mL, B: 16 µg/mL, A: 8 µg/mL, C: 4 µg/mL)

a = Cn1ncc2nc(NCc3ccc(F)c(F)c3)[nH]c(=O)c21
b = CNC(=O)C(C)(C)CCCn1ncc2nc(NCc3ccc(Cl)c(Cl)c3)[nH]c(=O)c21
c = O=c1[nH]c(NCc2ccc(Cl)c(Cl)c2)nc2cn(-c3ncccn3)nc12
d = N#Cc1nn(CCOCCO)c2c(=O)[nH]c(NCc3ccc(Cl)c(Cl)c3)nc12
Order the records, beginning with the lowest MIC and ending with the highest. Provide your answer as the labels ordered per the instruction. d, c, a, b
(d: 2 µg/mL, c: 4 µg/mL, a: 8 µg/mL, b: 16 µg/mL)

P = CN(CCn1ncc2nc(NCc3ccc(Cl)c(Cl)c3)[nH]c(=O)c21)C(=O)c1cc(O)nnc1Cl
Q = O=C(O)CCCCn1nc(F)c2nc(NCc3ccc(F)c(F)c3)[nH]c(=O)c21
R = Cn1ncc2nc(NCc3ccc(Cl)cc3Cl)[nH]c(=O)c21
Given 3 compounds, produce a descending ranking by MIC. Return the labels ranked in the requested order, please. R, Q, P

a = O=c1[nH]c(NCc2ccc(Cl)c(Cl)c2)nc2cnn(C[C@@H]3CO[C@@H](CO)CO3)c12
b = COC(=O)COCCn1ncc2nc(NCc3ccc(Cl)c(Cl)c3)[nH]c(=O)c21
c = Cl.O=c1[nH]c(NCc2ccc(Cl)c(Cl)c2)nc2cnn(C3CCN(S(=O)(=O)c4cccnc4)CC3)c12
d = COC(=O)CCCCn1ncc2nc(NCc3ccc(Cl)c(Cl)c3)[nH]c(=O)c21
Please produce an ascending ranking of these compounds based on MIC. Output spec: labels arranged per the requested ranking. d, c, a, b

I = NCCn1ncc2nc(NCc3ccc(Cl)c(Cl)c3)[nH]c(=O)c21
II = O=C(O)CCCCn1nc(F)c2nc(NCc3ccc(Cl)c(Cl)c3)[nH]c(=O)c21
Looking at I and II , which one comes out lower in MIC terms? # reply format: chosen label II
(II: 4 µg/mL, I: 8 µg/mL)

A = O=c1[nH]c(NCc2ccc(Cl)c(Cl)c2)nc2cnn(C3CCCC3)c12
B = O=c1[nH]c(NCc2ccc(Cl)c(Cl)c2)nc2cnn(C3CCOCC3)c12
Field: entry with larger MIC (options A / B ). Respond using the label that marks the chosen record. A
(A: 8 µg/mL, B: 4 µg/mL)

I = Cl.O=c1[nH]c(NCc2ccc(Cl)c(Cl)c2)nc2cnn(CCOc3cccnc3)c12
II = O=c1[nH]c(NCc2ccc(Cl)c(Cl)c2)nc2cnn(Cc3ncccn3)c12
// pick larger MIC from pair: I vs II Answer by stating the label of the chosen item. I
(I: 8 µg/mL, II: 4 µg/mL)
